Exercise: state measured pEC50 for each of the molecules provided.
target: human activated kallikrein enzyme (Homo sapiens (Human), UniProt P03952); test: Inhibition of human activated plasma kallikrein, fluorogenic peptide substrate assay (500 pM enzyme format); settings: 500 pM activated kallikrein, 300 uM Pro-Phe-Arg-7-amido-4-methylcoumarin substrate, 30 min preincubation, 10 min reaction at RT; read-out: Primary Dose Response Assay: Average EC50
Sequence (P03952 391-638): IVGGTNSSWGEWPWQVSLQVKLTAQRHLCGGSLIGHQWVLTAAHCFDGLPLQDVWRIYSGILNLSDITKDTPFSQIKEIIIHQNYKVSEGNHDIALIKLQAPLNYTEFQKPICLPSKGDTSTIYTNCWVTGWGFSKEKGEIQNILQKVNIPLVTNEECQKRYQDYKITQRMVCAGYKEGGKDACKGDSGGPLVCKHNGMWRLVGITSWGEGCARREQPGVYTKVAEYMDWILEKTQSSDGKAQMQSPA
Sequence (P03952 20-390 partner): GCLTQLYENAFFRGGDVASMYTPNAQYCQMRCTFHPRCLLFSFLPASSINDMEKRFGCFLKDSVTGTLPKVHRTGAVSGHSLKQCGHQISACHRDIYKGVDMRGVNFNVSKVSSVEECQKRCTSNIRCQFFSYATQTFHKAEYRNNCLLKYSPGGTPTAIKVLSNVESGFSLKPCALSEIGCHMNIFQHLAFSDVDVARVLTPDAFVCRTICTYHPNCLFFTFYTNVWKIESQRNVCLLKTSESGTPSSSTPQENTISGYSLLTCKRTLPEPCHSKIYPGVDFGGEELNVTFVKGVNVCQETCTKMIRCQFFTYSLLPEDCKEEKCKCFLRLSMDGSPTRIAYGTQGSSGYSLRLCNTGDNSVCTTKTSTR
pEC50: −log10 of the molar value.

Use the examples below as a reference point.
molecule=O=S(=O)(NCc1cn(Cc2cn3cc(C4CC4)ccc3n2)nn1)c1ncn2ccc(Cl)c(F)c12 recordedmetric=pEC50 reportedresult="≥ 7.30"
molecule=N#Cc1ccn2cnc(CNC(=O)c3cnn(Cc4cn5cc(C6CC6)ccc5n4)c3)c2c1 recordedmetric=pEC50 reportedresult="≥ 7.30"
molecule=Fc1c(Cl)ccn2cnc(CNCc3cn(Cc4cn5cc(C6CC6)cc(-n6cnnc6)c5n4)nn3)c12 recordedmetric=pEC50 reportedresult="≥ 7.30"
molecule=O=S(=O)(NCc1ncn2ccc(Cl)c(F)c12)c1cn(Cc2cn3cc(C4CC4)ccc3n2)nn1 recordedmetric=pEC50 reportedresult="6.00 to 6.70"
molecule="O=C(Cc1ncn2ccc(Cl)cc12)NC(c1cnn(Cc2cn3cc(C4CC4)ccc3n2)c1)C(F)(F)F (stereo not drawn)" recordedmetric=pEC50 reportedresult="6.70 to 7.30"

Hello, I would appreciate it if you could give pEC50 for each entry below.
1. O=C(NCc1cn(Cc2cn3cc(C4CC4)ccc3n2)nn1)c1ncn2ccc(Cl)c(F)c12
2. CC(NC(=O)Cc1ncn2ccc(Cl)cc12)c1cn(Cc2cn3cc(C4CC4)ccc3n2)nn1 (stereo not drawn)
3. O=C(NCc1ncn2ccc(Cl)c(F)c12)c1cnc2n1C(c1cn3cc(C4CC4)ccc3n1)CC2 (stereo not drawn)
4. O=C(Cc1ncn2ccc(Cl)cc12)NCc1cn(Cc2cn3cc(C4CC4)ccc3n2)nn1
5. O=C(O)c1cc(C2CC2)cn2cc(Cn3cc(CNCc4ncn5ccc(Cl)c(F)c45)nn3)nc12

Response given:
6.70 to 7.30
≥ 7.30
6.00 to 6.70
≥ 7.30
6.00 to 6.70

Hello, I would appreciate it if you could give pEC50 for each entry below.
1. CN1CCN(c2cc(C3CC3)cn3cc(Cn4cc(C(=O)NCc5ncn6ccc(Cl)c(F)c56)nn4)nc23)CC1
2. Fc1c(Cl)ccn2cnc(CNC(c3cnn(Cc4cn5cc(C6CC6)ccc5n4)c3)C(F)(F)F)c12 (stereo not drawn)
3. Fc1c(Cl)ccn2cnc(CNCc3cn(Cc4cn5cc(C6CC6)ccc5n4)nn3)c12
4. CCOC(=O)CCc1cc(C2CC2)cn2cc(Cn3cc(CNCc4ncn5ccc(Cl)c(F)c45)nn3)nc12 [Compound I-17a]
5. O=C(NCc1ncn2ccc(Cl)c(F)c12)c1cn2c(n1)CCC2c1cn2cc(C3CC3)ccc2n1 (stereo not drawn)
6. O=C(O)CCc1cc(C2CC2)cn2cc(Cn3cc(CNCc4ncn5ccc(Cl)c(F)c45)nn3)nc12 [Compound I-17b]
7. O=S(=O)(NCc1ncn2ccc(Cl)c(F)c12)c1cnn(Cc2cn3cc(C4CC4)ccc3n2)c1

Response given:
≥ 7.30
≥ 7.30
≥ 7.30
≥ 7.30
≥ 7.30
≥ 7.30
6.00 to 6.70

Hello, I would appreciate it if you could give pEC50 for each entry below.
1. CC(NCc1ncn2ccc(Cl)c(F)c12)c1cn(Cc2cn3cc(C4CC4)ccc3n2)nn1 (stereo not drawn)
2. COC(=O)c1cc(C2CC2)cn2cc(Cn3cc(CNCc4ncn5ccc(Cl)c(F)c45)nn3)nc12

Response given:
["6.70 to 7.30", "≥ 7.30"]

Hello, I would appreciate it if you could give pEC50 for each entry below.
1. Fc1c(Cl)ccn2cnc(C(NCc3cn(Cc4cn5cc(C6CC6)ccc5n4)nn3)C(F)(F)F)c12 (stereo not drawn)
2. CC(NS(=O)(=O)c1ncn2ccc(Cl)c(F)c12)c1cn(Cc2cn3cc(C4CC4)ccc3n2)nn1 (stereo not drawn)

Response given:
< 6.00
≥ 7.30
